pIC50: −log10 of the molar value.
Compiled literature pIC50, tested on MKK4 (Homo sapiens, UniProt P45985).
measured_property: pIC50

- molecule: "Nc1c(F)ccc(C(=O)c2c[nH]c3ncc(-c4ccc(Cl)cc4)cc23)c1F"
  measured_property: "pIC50"
  measured: "6.00 to 7.00"
- molecule: "CCCS(=O)(=O)Nc1ccc(F)c(C(=O)c2c[nH]c3ncc(N4CCNCC4)cc23)c1F"
  measured_property: "pIC50"
  measured: "5.00 to 6.00"
- molecule: "CCCS(=O)(=O)Nc1c(F)ccc(C(=O)c2c[nH]c3ncc(-c4cnc(OC)nc4C)cc23)c1F"
  measured_property: "pIC50"
  measured: "> 7.00"
- molecule: "CCCS(=O)(=O)Nc1ccc(F)c(C(=O)c2c[nH]c3ncc(-c4ccc(C(=O)O)cc4)cc23)c1F"
  measured_property: "pIC50"
  measured: "> 7.00"
- molecule: "CCCS(=O)(=O)Nc1ccc(F)c(C(=O)c2c[nH]c3ncc(N4CC(C)OC(C)C4)cc23)c1F (stereo not drawn)"
  measured_property: "pIC50"
  measured: "5.00 to 6.00"
- molecule: "CCCS(=O)(=O)Nc1ccc(F)c(C(=O)c2c[nH]c3ncc(-c4ccc(N(C)C)cc4)cc23)c1F"
  measured_property: "pIC50"
  measured: "5.00 to 6.00"
- molecule: "CCCS(=O)(=O)Nc1c(F)ccc(C(=O)c2c[nH]c3ncc(-c4cnc(N(C)CCO)nc4)cc23)c1F"
  measured_property: "pIC50"
  measured: "> 7.00"
- molecule: "CCCS(=O)(=O)Nc1c(F)ccc(C(=O)c2c[nH]c3ncc(-c4ccc(C)nc4Cl)cc23)c1F"
  measured_property: "pIC50"
  measured: "> 7.00"
- molecule: "CCCS(=O)(=O)Nc1c(F)ccc(C(=O)c2c[nH]c3ncc(-c4ccc(C)nc4C)cc23)c1F"
  measured_property: "pIC50"
  measured: "> 7.00"
- molecule: "CCCS(=O)(=O)Nc1c(F)ccc(C(=O)c2c[nH]c3ncc(-c4ccc(F)cc4)cc23)c1F"
  measured_property: "pIC50"
  measured: "> 7.00"
- molecule: "CCCS(=O)(=O)Nc1c(F)ccc(C(=O)c2c[nH]c3ncc(-c4cnc(C#N)nc4)cc23)c1F"
  measured_property: "pIC50"
  measured: "6.00 to 7.00"
- molecule: "CCCS(=O)(=O)Nc1c(F)cc(F)c(C(=O)c2c[nH]c3ncc(-c4cnc(C5CC5)nc4)cc23)c1F"
  measured_property: "pIC50"
  measured: "> 7.00"
- molecule: "CCCCS(=O)(=O)Nc1cccc(C(=O)c2c[nH]c3ncc(-c4ccc5c(c4)OCO5)cc23)c1F"
  measured_property: "pIC50"
  measured: "> 6.30"
- molecule: "CN(C)c1ncc(-c2cnc3[nH]cc(C(=O)c4ccc(F)c(NS(=O)(=O)CCC(F)(F)F)c4F)c3c2)cn1"
  measured_property: "pIC50"
  measured: "> 7.00"
- molecule: "COc1ccc(-c2cnc3[nH]cc(C(=O)c4ccc(F)c(NS(=O)(=O)CCC(F)(F)F)c4F)c3c2)cn1"
  measured_property: "pIC50"
  measured: "> 7.00"

---

Compiled literature pIC50, tested on MKK4 (Homo sapiens, UniProt P45985).
pIC50: −log10 of the molar value.
measured_property: pIC50

- given_smiles: "CCCS(=O)(=O)Nc1c(F)ccc(C(=O)c2c[nH]c3ncc(-c4cnc(OCC(C)(C)C)nc4)cc23)c1F"
  measured_on: "MKK4 (Homo sapiens, UniProt P45985)"
  measured: "< 5.00"
- given_smiles: "CCCS(=O)(=O)Nc1ccc(F)c(C(=O)c2c[nH]c3ncc(-c4ccc(S(C)(=O)=O)cc4)cc23)c1F"
  measured_on: "MKK4 (Homo sapiens, UniProt P45985)"
  measured: "6.00 to 7.00"
- given_smiles: "CCCS(=O)(=O)Nc1c(F)ccc(C(=O)c2c[nH]c3ncc(-c4cnc(N5CCN(C)CC5)nc4)cc23)c1F"
  measured_on: "MKK4 (Homo sapiens, UniProt P45985)"
  measured: "6.00 to 7.00"
- given_smiles: "CCCS(=O)(=O)Nc1c(F)ccc(C(=O)c2n[nH]c3ncc(-c4cnc(OC)nc4OC)cc23)c1F"
  measured_on: "MKK4 (Homo sapiens, UniProt P45985)"
  measured: "> 7.00"
- given_smiles: "CCCS(=O)(=O)Nc1c(F)ccc(C(=O)c2c[nH]c3ncc(-c4cnc(C)nc4C)cc23)c1F"
  measured_on: "MKK4 (Homo sapiens, UniProt P45985)"
  measured: "> 7.00"
- given_smiles: "CCCS(=O)(=O)Nc1c(F)ccc(C(=O)c2c[nH]c3ncc(-c4ccc(C(=O)NOCCO)cc4)cc23)c1F"
  measured_on: "MKK4 (Homo sapiens, UniProt P45985)"
  measured: "> 7.00"
- given_smiles: "CCCS(=O)(=O)Nc1c(F)ccc(C(=O)c2c[nH]c3ncc(-c4ccc(C(=O)O)cc4)cc23)c1F"
  measured_on: "MKK4 (Homo sapiens, UniProt P45985)"
  measured: "> 7.00"

---

Compiled literature pIC50, tested on MKK4 (Homo sapiens, UniProt P45985).
pIC50: −log10 of the molar value.
measured_property: pIC50

- molecule: "CCCS(=O)(=O)Nc1c(F)ccc(C(=O)c2c[nH]c3ncc(-c4ccccc4C(=O)O)cc23)c1F"
  measured_property: "pIC50"
  measured: "5.00 to 6.00"
- molecule: "CCCS(=O)(=O)Nc1c(F)ccc(C(=O)c2n[nH]c3ncc(-c4cnc(C5CC5)nc4SC)cc23)c1F"
  measured_property: "pIC50"
  measured: "6.00 to 7.00"
- molecule: "Cc1cc(F)ccc1-c1cnc2[nH]cc(C(=O)c3cccc(NS(=O)(=O)Cc4ccccc4)c3F)c2c1"
  measured_property: "pIC50"
  measured: "6.00 to 7.00"
- molecule: "CCCS(=O)(=O)Nc1ccc(F)c(C(=O)c2n[nH]c3ncc(-c4ccc(N)cc4)cc23)c1F"
  measured_property: "pIC50"
  measured: "> 6.30"
- molecule: "CCCS(=O)(=O)Nc1ccc(F)c(C(=O)c2c[nH]c3ncc(-c4cccc(C)c4)cc23)c1F"
  measured_property: "pIC50"
  measured: "6.00 to 7.00"
- molecule: "O=C(c1ccc(F)c(NS(=O)(=O)CCC(F)(F)F)c1F)c1c[nH]c2ncc(-c3ccc(C(F)(F)F)nc3)cc12"
  measured_property: "pIC50"
  measured: "> 7.00"
- molecule: "CCCS(=O)(=O)Nc1ccc(F)c(C(=O)c2c[nH]c3ncc(-c4nncs4)cc23)c1F"
  measured_property: "pIC50"
  measured: "5.00 to 6.00"
- molecule: "CCCS(=O)(=O)Nc1c(F)ccc(C(=O)c2c[nH]c3ncc(-c4ccc(F)cc4Cl)cc23)c1F"
  measured_property: "pIC50"
  measured: "> 7.00"
- molecule: "C=CC(=O)Nc1cccc(-c2n[nH]c3ccccc23)c1"
  measured_property: "pIC50"
  measured: 5.38
- molecule: "CCCS(=O)(=O)Nc1c(F)ccc(C(=O)c2n[nH]c3ncc(-c4cccnc4)cc23)c1F"
  measured_property: "pIC50"
  measured: "> 7.00"
- molecule: "CCCS(=O)(=O)Nc1c(F)ccc(C(=O)c2c[nH]c3ncc(-c4ccc(S(C)(=N)=O)cc4)cc23)c1F (stereo not drawn)"
  measured_property: "pIC50"
  measured: "6.00 to 7.00"
- molecule: "CS(=O)(=O)Nc1cccc(C(=O)c2c[nH]c3ncc(-c4ccc5c(c4)OCCO5)cc23)c1F"
  measured_property: "pIC50"
  measured: "< 5.00"
- molecule: "CCCS(=O)(=O)Nc1c(F)ccc(C(=O)c2c[nH]c3ncc(-c4c(C)cc(C)nc4C)cc23)c1F"
  measured_property: "pIC50"
  measured: "6.00 to 7.00"
- molecule: "O=C(c1c(F)ccc(NS(=O)(=O)CCC(F)(F)F)c1F)c1c[nH]c2ncc(-c3ccc(N4CCSCC4)nc3)cc12"
  measured_property: "pIC50"
  measured: "> 7.00"
- molecule: "CCCS(=O)(=O)Nc1c(F)ccc(C(=O)c2c[nH]c3ncc(-c4cnc(C5CC5)cc4C)cc23)c1F"
  measured_property: "pIC50"
  measured: "> 7.00"

---

Compiled literature pIC50, tested on MKK4 (Homo sapiens, UniProt P45985).
pIC50: −log10 of the molar value.
measured_property: pIC50

- compound: "CCCS(=O)(=O)Nc1ccc(F)c(C(=O)c2c[nH]c3ncc(-c4ccc(C(C)(C)C)cc4)cc23)c1F"
  measured_on: "MKK4 (Homo sapiens, UniProt P45985)"
  measured_property: "pIC50"
  measured: "6.00 to 7.00"
- compound: "CCCS(=O)(=O)Nc1c(F)ccc(C(=O)c2c[nH]c3ncc(-c4ccc(C(F)(F)F)nc4)cc23)c1F"
  measured_on: "MKK4 (Homo sapiens, UniProt P45985)"
  measured_property: "pIC50"
  measured: "> 7.00"
- compound: "CCCS(=O)(=O)Nc1c(F)ccc(C(=O)c2c[nH]c3ncc(-c4ccc(P(C)(C)=O)cc4)cc23)c1F"
  measured_on: "MKK4 (Homo sapiens, UniProt P45985)"
  measured_property: "pIC50"
  measured: "> 7.00"
- compound: "CS(=O)(=O)Nc1cccc(C(=O)c2c[nH]c3ncc(-c4ccccc4Cl)cc23)c1F"
  measured_on: "MKK4 (Homo sapiens, UniProt P45985)"
  measured_property: "pIC50"
  measured: "> 6.30"
- compound: "CCCS(=O)(=O)Nc1c(F)ccc(C(=O)c2c[nH]c3ncc(-c4ccc(OCC(O)CO)cc4)cc23)c1F (stereo not drawn)"
  measured_on: "MKK4 (Homo sapiens, UniProt P45985)"
  measured_property: "pIC50"
  measured: "> 7.00"
- compound: "CCCS(=O)(=O)Nc1ccc(F)c(C(=O)c2n[nH]c3ncc(-c4ccc(O)cc4)cc23)c1F"
  measured_on: "MKK4 (Homo sapiens, UniProt P45985)"
  measured_property: "pIC50"
  measured: "> 6.30"
- compound: "O=C(c1ccc(F)c(NS(=O)(=O)Cc2ccccc2)c1)c1c[nH]c2ncc(-c3ccc(Cl)cc3)cc12"
  measured_on: "MKK4 (Homo sapiens, UniProt P45985)"
  measured_property: "pIC50"
  measured: "6.00 to 7.00"
- compound: "CCCS(=O)(=O)Nc1c(F)ccc(C(=O)c2c[nH]c3ncc(-c4ccccc4Cl)cc23)c1F"
  measured_on: "MKK4 (Homo sapiens, UniProt P45985)"
  measured_property: "pIC50"
  measured: "> 7.00"
- compound: "CCCS(=O)(=O)Nc1ccc(F)c(C(=O)c2n[nH]c3ncc(-c4ccccc4C)cc23)c1F"
  measured_on: "MKK4 (Homo sapiens, UniProt P45985)"
  measured_property: "pIC50"
  measured: "> 6.30"
- compound: "CCCS(=O)(=O)Nc1ccc(F)c(C(=O)c2c[nH]c3ncc(-c4ccc5c(c4)C=C(C)N=S5(C)=O)cc23)c1F (stereo not drawn)"
  measured_on: "MKK4 (Homo sapiens, UniProt P45985)"
  measured_property: "pIC50"
  measured: "6.00 to 7.00"
- compound: "COc1ncc(-c2cnc3[nH]cc(C(=O)c4cccc(NS(=O)(=O)Cc5ccccc5)c4F)c3c2)cn1"
  measured_on: "MKK4 (Homo sapiens, UniProt P45985)"
  measured_property: "pIC50"
  measured: "6.00 to 7.00"
- compound: "CCCS(=O)(=O)Nc1c(F)ccc(C(=O)c2c[nH]c3ncc(-c4cnc(CF)nc4)cc23)c1F"
  measured_on: "MKK4 (Homo sapiens, UniProt P45985)"
  measured_property: "pIC50"
  measured: "6.00 to 7.00"
- compound: "CCCS(=O)(=O)Nc1ccc(F)c(C(=O)c2n[nH]c3ncc(-c4cccc(O)c4)cc23)c1F"
  measured_on: "MKK4 (Homo sapiens, UniProt P45985)"
  measured_property: "pIC50"
  measured: "> 6.30"
- compound: "COC(=O)c1ccc(-c2cnc3[nH]nc(C(=O)c4ccc(F)c(NS(C)(=O)=O)c4F)c3c2)cn1"
  measured_on: "MKK4 (Homo sapiens, UniProt P45985)"
  measured_property: "pIC50"
  measured: "5.00 to 6.00"
- compound: "COc1ccc(-c2cnc3[nH]cc(C(=O)c4cccc(NS(C)(=O)=O)c4F)c3c2)c(Cl)c1"
  measured_on: "MKK4 (Homo sapiens, UniProt P45985)"
  measured_property: "pIC50"
  measured: "> 6.30"
